Here, each record is paired with measured IC50 data.
target: T1, cloned human SRIF receptor SSTR2 (human, UniProt P30874 1-369); assay: radioligand displacement (125I-[Leu8,D-Trp22,Tyr25]SRIF-28), membrane pellet sections
T1 construct: whole, on cells; assayed as cryostat sections of membrane pellets of the transfected cells; also called hSSTR2
T1 sequence (P30874 whole entry): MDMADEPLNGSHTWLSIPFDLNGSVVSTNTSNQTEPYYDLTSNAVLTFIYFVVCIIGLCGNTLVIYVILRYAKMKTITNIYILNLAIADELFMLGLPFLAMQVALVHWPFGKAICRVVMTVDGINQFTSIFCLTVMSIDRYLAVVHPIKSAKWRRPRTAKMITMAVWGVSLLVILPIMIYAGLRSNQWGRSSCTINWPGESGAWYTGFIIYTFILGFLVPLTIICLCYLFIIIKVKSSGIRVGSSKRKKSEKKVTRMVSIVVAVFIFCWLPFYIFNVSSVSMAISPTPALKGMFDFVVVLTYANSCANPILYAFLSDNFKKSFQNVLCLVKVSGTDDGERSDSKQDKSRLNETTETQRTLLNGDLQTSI
Numbered stars: 1 amine (or outer) side, 2 acyl side, 3 side chain; on linkers, the order of the positions; unused ones are H or OH. Bridge positions count the residues as written; N and C are the ends. Square brackets hold non-standard residues; d marks the D form. threo‑(2S,3R)CβMe‑2Nal = threo-(2S,3R)-β-methyl-2-naphthylalanine (L-threo), C[C@H](c1ccc2ccccc2c1)[C@H](N[*:1])C(=O)[*:2]; d2Nal(3S-Me) = C[C@@H](c1ccc2ccccc2c1)[C@@H](N)C(=O)O; Phe(4-NH2) = Nc1ccc(C[C@H](N)C(=O)O)cc1
Value expressed in nM; do not type the unit.

Please review the entries below; each comes with its answer.
[[record]]
binder = "H-YCFAWKTFC-OH (disulfide 2-9, synthetic cyclic nonapeptide; also called Peptide No. 13) [(cyclo)H-Tyr-Cys-Phe-Ala-Trp-Lys-Thr-Phe-Cys-OH]"
unit_descriptor = "nM"
reported_measurement = 622

[[record]]
binder = "H-CFY[d2Nal(3S-Me)]KTFC-OH (disulfide 1-8; SMILES C[C@@H](O)[C@@H]1NC(=O)[C@H](CCCCN)NC(=O)[C@@H]([C@@H](C)c2ccc3ccccc3c2)NC(=O)[C@H](Cc2ccc(O)cc2)NC(=O)[C@H](Cc2ccccc2)NC(=O)[C@@H](N)CSSC[C@@H](C(=O)O)NC(=O)[C@H](Cc2ccccc2)NC1=O, also called Peptide No. 17) [(cyclo)H-Cys-Phe-Tyr-threo-(2R,3S)C^βMe-2Nal-Lys-Thr-Phe-Cys-OH]"
unit_descriptor = "nM"
reported_measurement = 30

[[record]]
binder = "H-CFA[dW]KTFC-OH (disulfide 1-8; SMILES C[C@@H]1NC(=O)[C@H](Cc2ccccc2)NC(=O)[C@@H](N)CSSC[C@@H](C(=O)O)NC(=O)[C@H](Cc2ccccc2)NC(=O)[C@H]([C@@H](C)O)NC(=O)[C@H](CCCCN)NC(=O)[C@@H](Cc2c[nH]c3ccccc23)NC1=O, synthetic cyclic octapeptide; also called Peptide 11; Peptide No. 11) [(cyclo)H-Cys-Phe-Ala-D-Trp-Lys-Thr-Phe-Cys-OH]"
unit_descriptor = "nM"
reported_measurement = 183

[[record]]
binder = "H-CFY[threo‑(2S,3R)CβMe‑2Nal]KTFC-OH (disulfide 1-8; SMILES C[C@H](c1ccc2ccccc2c1)[C@@H]1NC(=O)[C@H](Cc2ccc(O)cc2)NC(=O)[C@H](Cc2ccccc2)NC(=O)[C@@H](N)CSSC[C@@H](C(=O)O)NC(=O)[C@H](Cc2ccccc2)NC(=O)[C@H]([C@@H](C)O)NC(=O)[C@H](CCCCN)NC1=O, later-eluting isomer, determined to incorporate the L-threo-β-Me-2Nal residue; also called Peptide No. 17A; 17a) [(cyclo)H-Cys-Phe-Tyr-threo-(2S,3R)C^βMe-2Nal-Lys-Thr-Phe-Cys-OH]"
unit_descriptor = "nM"
reported_measurement = 194


Turning now to a further binder:
Ask | Return the recorded IC50 value; entry: H-CF[Phe(4-NH2)][dW]KTFC-OH (disulfide 1-8, synthetic cyclic octapeptide; also called Peptide No. 2) [(cyclo)H-Cys-Phe-4Aph-D-Trp-Lys-Thr-Phe-Cys-OH]
Reply | 71

Values compiled from patent US20050245438A1.
